STUDY_SYSTEM: human recombinant COX2 (hCOX2)
Sequence (P35354 1-604): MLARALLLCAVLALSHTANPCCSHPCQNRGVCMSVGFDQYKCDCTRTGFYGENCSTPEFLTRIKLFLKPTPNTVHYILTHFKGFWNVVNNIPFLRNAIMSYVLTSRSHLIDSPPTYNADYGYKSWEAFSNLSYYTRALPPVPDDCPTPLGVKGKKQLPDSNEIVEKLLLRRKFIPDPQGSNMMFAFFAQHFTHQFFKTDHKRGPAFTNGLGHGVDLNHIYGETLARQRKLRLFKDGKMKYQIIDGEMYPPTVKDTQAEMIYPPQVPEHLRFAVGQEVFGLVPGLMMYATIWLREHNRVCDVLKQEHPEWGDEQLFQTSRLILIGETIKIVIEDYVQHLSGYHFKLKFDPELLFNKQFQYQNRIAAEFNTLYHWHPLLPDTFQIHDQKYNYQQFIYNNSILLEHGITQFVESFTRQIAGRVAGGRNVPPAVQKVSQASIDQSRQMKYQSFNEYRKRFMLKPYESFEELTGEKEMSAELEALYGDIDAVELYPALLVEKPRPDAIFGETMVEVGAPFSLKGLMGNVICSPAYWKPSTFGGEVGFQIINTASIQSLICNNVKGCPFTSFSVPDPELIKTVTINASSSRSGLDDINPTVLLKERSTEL
ASSAY_NOTES: LCMS-based COX2 enzymatic inhibition assay (PGE2 quantification)
Type: biochemical
Design: COX2 2 minutes pge2/pge2d4 area ratio Avg; other: 2 minutes; readout pge2/pge2d4 area ratio; average; COX2 2 minutes pge2/pge2d4 area ratio Avg; LLE; average LLE; COX2 2 minutes pge2 area (counts) Avg; readout pge2 area (counts); other: 2 min; "ovine COX2 (oCOX2), human recombinant COX2 (hCOX2)"
APPLIED_CONDITIONS: 2 minutes; readout pge2 area (counts); average; read-out: COX2 2 minutes pge2 area (counts) Avg. IC50
PROPERTY_NAME: IC50 (nM)

Answered examples (8):
>  <MOLECULE>
CS(=O)(=O)c1ccc(-c2ccc3ncn(Cc4cccs4)c3n2)cc1 [Compound 155]

>  <IC50, nM>
317

$$$$
>  <MOLECULE>
CS(=O)(=O)c1ccc(-c2cncc(OCc3nccs3)n2)cc1 [Compound 147]

>  <IC50, nM>
113

$$$$
>  <MOLECULE>
CS(=O)(=O)c1ccc(-c2ccc(F)c(OCc3cccs3)n2)cc1 [Compound 45]

>  <IC50, nM>
23.2

$$$$
>  <MOLECULE>
CS(=O)(=O)c1ccc(-n2ccc3ccc(OCc4cccs4)nc32)cc1 [Compound 122]

>  <IC50, nM>
95

$$$$
>  <MOLECULE>
CS(=O)(=O)c1ccc(-c2ccnc(OCc3cccs3)c2)cc1 [Compound 267]

>  <IC50, nM>
2950

$$$$
>  <MOLECULE>
COc1ccc(NCc2ccoc2)nc1-c1ccc(S(C)(=O)=O)cc1 [Compound 66]

>  <IC50, nM>
42

$$$$
>  <MOLECULE>
CS(=O)(=O)c1ccc(-c2cccc(NCc3cccs3)c2)cc1 [Compound 42]

>  <IC50, nM>
6.71

$$$$
>  <MOLECULE>
COc1ccc(NCc2cccs2)nc1-c1ccc(S(C)(=O)=O)nc1 [Compound 88]

>  <IC50, nM>
69.3

$$$$

I = CS(=O)(=O)c1ccc(-n2cnc3ccc(NCc4cccs4)nc32)cc1 [Compound 184]
II = C[C@@H](Nc1cccc(-c2ccc(S(C)(=O)=O)cc2)n1)c1ccoc1 (single isomer, unassigned) [Compound 112]
Name the one with the greater IC50 value, either I or II as given. Provide the label of your selected option as the answer.
I

A = CS(=O)(=O)c1ccc(-c2cncc(NCc3ccc(F)cn3)n2)cc1 [Compound 221]
B = CS(=O)(=O)c1ccc(-c2cncc(SCc3ccccn3)n2)cc1 [Compound 131]
Pick the one with the larger IC50: A vs B Your answer should be the label of the entry you select.
A
(A: 2690 nM, B: 131 nM)
